system: UACC-257; test: NCI tumour cell line growth inhibition, 48 h
Active and inactive are the calls of the source. No stated cut-off is given here; in the data, active = GI50 up to about 1.1 µM and inactive = higher.
VALUE_TYPE: GI50

// worked examples, GI50 included
{"COMPOUND": "CC12Nc3ccccc3N1C(=O)c1ccccc12 (stereo not given)", "TEST_VALUE": "> 100 µM (inactive)"}
{"COMPOUND": "COc1ccc(OC)c(NC(=O)C(=O)CC(=O)c2sc(-n3nc(-c4ccccc4)cc3-c3ccccc3)nc2C)c1", "TEST_VALUE": "> 100 µM (inactive)"}
{"COMPOUND": "COc1ccc2c(c1O)[C@@]13CCCC=C1[C@@H](C2)N(C)CC3", "TEST_VALUE": "> 100 µM (inactive)"}
{"COMPOUND": "C[C@@]12c3c4ccc(C=O)c3Oc3ccc(C=O)c(c31)Oc1c(C=O)ccc(c12)O4", "TEST_VALUE": "> 100 µM (inactive)"}
{"COMPOUND": "COc1cc2c(c(OC)c1OC)-c1[nH]ncc1CC2", "TEST_VALUE": "> 100 µM (inactive)"}
{"COMPOUND": "COc1ccc(C(OCC2OC(n3ccc(NC(=O)c4ccccc4)nc3=O)CC2OP2(=S)SCCS2)(c2ccccc2)c2ccc(OC)cc2)cc1 (stereo not given)", "TEST_VALUE": "30.1 µM (inactive)"}

Q: For the compound "CC[N+](C)(CC)CCC(O)(c1ccccc1)c1ccccc1" , what GI50 is on record?
Result: > 100 µM (inactive)

Q: Now consider "COc1ccc(Oc2nc3c(N)cc(C(F)(F)F)cc3nc2-c2ccccc2)cc1" and answer again.
Result: 39.2 µM (inactive)

Q: Also "C[Si](C)(C)/C=C\CCO" ?
Result: > 100 µM (inactive)

Q: Subsequent entry: "CN(C)c1ccc(N=O)c(O)c1.CN(C)c1ccc(N=O)c(O)c1.[SiH4]"
Result: 14 µM (inactive)

###

tested on: CCRF-CEM; assay: NCI tumour cell line growth inhibition, 48 h
Active and inactive are the calls of the source. Rule as the data show it: active = GI50 up to about 1.1 µM and inactive = higher.
Recorded GI50 for the following molecules

In the examples that follow, each entry is paired with its recorded GI50.
{"MOLECULE": "CC(C)(CCCCC(C)(C)NC1=NCCO1)NC1=NCCO1", "TEST_SYSTEM": "CCRF-CEM", "TEST_VALUE": "> 10 µM (inactive)"}
{"MOLECULE": "Cc1c(F)c(NC(=O)CN(C)C)c2c(=O)cc(-c3ccc(NC(=O)CN(C)C)c(F)c3)oc2c1F", "TEST_SYSTEM": "CCRF-CEM", "TEST_VALUE": "21.5 µM (inactive)"}
{"MOLECULE": "Cc1nc(C)c(N2CCN(S(N)(=O)=O)CC2)c(O)n1", "TEST_SYSTEM": "CCRF-CEM", "TEST_VALUE": "> 100 µM (inactive)"}
{"MOLECULE": "COc1ccccc1N1C(Cl)C(=O)C1c1c[nH]c2ccccc12 (stereo unspecified)", "TEST_SYSTEM": "CCRF-CEM", "TEST_VALUE": "> 100 µM (inactive)"}

Q: # returns recorded GI50 (system: CCRF-CEM) for "Cc1c2[nH]c3ccc(Br)cc3c2c(C)c2nccc(O)c12"
Result: 7.35 µM (inactive)

Q: Also "COC(=O)c1nc(-c2ccc(Cl)c(Cl)c2)nc2ccc(Cl)cc12" ?
Result: > 10 µM (inactive)

###

system: UACC-257; test: NCI tumour cell line growth inhibition, 48 h
Active and inactive are the calls of the source. Rule as the data show it: active = GI50 up to about 1.1 µM and inactive = higher.
VALUE_TYPE: GI50

Consider the reported GI50 for these compounds:
{"COMPOUND": "O=C(/C=C/c1csc(-c2ccccc2)n1)NCc1ccc(C(=O)NCCc2ccccc2)cc1", "GI50": "27.2 µM (inactive)"}
{"COMPOUND": "COc1ccc2cc(CNCCCCCCNC(=O)Nc3cccc4ccccc34)ccc2c1", "GI50": "> 100 µM (inactive)"}
{"COMPOUND": "CCCCCCCCCCCCCCCC(=O)OC1C(O)C(O)C(O)C(O)C12CO2 (stereo unspecified)", "GI50": "> 100 µM (inactive)"}
{"COMPOUND": "CCCC(=O)OCC(O)CO (stereo unspecified)", "GI50": "> 5000 µM (inactive)"}

Q: Need GI50 of CC[C@]1(c2ccc3c(c2)OCO3)C=[N+]([O-])O[C@H](OC2CCCC2(c2ccccc2)c2ccccc2)[C@@H]1OC(C)=O (stereo partly specified) , thanks.
Result: 2.58 µM (inactive)

Q: What about "CC(C)(C)C(=O)OCC(COC(=O)C(C)(C)C)[N+](=O)[O-]" ?
Result: > 100 µM (inactive)

Q: Also, "CC(C)CC(=O)OC[n+]1cccc(-c2c(COC(=O)NC(C)C)c(COC(=O)NC(C)C)c3n2CCC3)c1" please.
Result: > 100 µM (inactive)

Q: Quick one: "CC(C)(C)c1ccc2c(c1)C(=O)c1ccccc1C2=O"
Result: 40.2 µM (inactive)

Q: And for "CCOc1nnnc2[nH]cnc12" ?
Result: > 100 µM (inactive)

Q: Same question for Cc1cc2c(c(/C=N/c3ccc([N+](=O)[O-])cc3)c1)OC1(C=C2)Oc2ccccc2C(=O)N1C (stereo unspecified) please.
Result: 21.2 µM (inactive)

Q: Record: "OCCCc1cnco1"
Result: > 100 µM (inactive)

###

system: MDA-N; assay: NCI tumour cell line growth inhibition, 48 h
Active and inactive are the calls of the source. No stated cut-off is given here; in the data, active = GI50 up to about 1.1 µM and inactive = higher.
Pick one and only one: T = active, F = inactive

Here's what some known entries look like.
{"MOLECULE": "CC(=O)O[C@@H](c1nccn1Cc1ccccc1)[C@H]1OC(C)(C)O[C@@H]1[C@H]1COC(C)(C)O1", "GROUP": "F"}
{"MOLECULE": "CC(C)(C)OC(=O)N(O)[C@@H]1CC[C@H](n2cnc3c(N)ncnc32)C1", "GROUP": "F"}
{"MOLECULE": "O=c1[nH]c2ccc(CC(=S)N3CCOCC3)cc2s1", "GROUP": "F"}

Q: Hey, what did the test say about "[C-]#[N+]C(=C\c1ccc(O)cc1)/C(=C/c1ccc(O)cc1)[N+]#[C-]" ?
Result: F

Q: Record: "N#C/C(=C\c1ccc2[nH]ccc2c1)C(=O)NCCCCNC(=O)/C(C#N)=C/c1ccc2[nH]ccc2c1"
Result: F

Q: What do you get for CC(C(=O)N1C(=O)N(C(=O)[C@H](C)C(O)c2ccccc2)[C@H](c2ccccc2)[C@H]1c1ccccc1)[C@@H](O)c1ccccc1 (stereo partly specified) ?
Result: F

###

tested on: DU-145; assay: NCI tumour cell line growth inhibition, 48 h
Calls of active or inactive are those of the source. No stated cut-off is given here; in the data, active = GI50 up to about 1.1 µM and inactive = higher.
Permitted responses: 1 for active, -1 for inactive

Take a look at these entries with their results.
{"COMPOUND": "Fc1cccc(F)c1C1SCc2nc3ccc(Cl)cc3n21 (stereo not given)", "TEST_SYSTEM": "DU-145", "GROUP": -1}
{"COMPOUND": "COc1c(Br)cc(/C=C(\\C#N)c2ccccn2)cc1Br", "TEST_SYSTEM": "DU-145", "GROUP": -1}
{"COMPOUND": "O=C(CC(Cl)(Cl)C(Cl)(Cl)Cl)c1ccccc1", "TEST_SYSTEM": "DU-145", "GROUP": -1}

Q: GET /call?item= "Cc1cc(=O)nc(S(=O)(=O)NC(=S)Nc2ccc(Br)cc2)[nH]1" returns the recorded outcome of this test.
Result: -1

Q: Request: "CCOP(=O)(Nc1ccc2oc(=O)c3ccccc3c2c1)OCC"
Result: -1

Q: Now give it for Cc1ccc(S(=O)(=O)NNC2Oc3cc4c(cc3C(c3ccccc3O)C2C)OCO4)cc1 (stereo not given) too.
Result: -1

Q: What do you have for "O=C(NCCCCCCO)c1cccc2cc3ccccc3nc12" ?
Result: -1

Q: What do you get for O=C(/C(=N\Nc1ccc([N+](=O)[O-])cc1[N+](=O)[O-])NC12CC3CC(CC(C3)C1)C2)C(Br)C(=O)c1ccccc1 (stereo not given) ?
Result: -1

Q: Repeat with "O=C1Nc2ccccc2/C1=N/NC(=S)NCc1ccccn1"
Result: 1

Q: Try this compound too: CC[C@]1(c2ccc3c(c2)OCO3)C=[N+]([O-])O[C@H](OC2CCCC2(c2ccccc2)c2ccccc2)[C@@H]1OC(C)=O (stereo not given in full)
Result: -1

###

system: UO-31; test: NCI tumour cell line growth inhibition, 48 h
Calls of active or inactive are those of the source. Rule as the data show it: active = GI50 up to about 1.1 µM and inactive = higher.
Documented GI50 across a set of molecules

See these solved cases before continuing.
{"MOLECULE": "O=C(/C=C/c1csc(-c2ccccc2)n1)NCc1ccc(C(=O)NCCc2ccccc2)cc1", "TEST_SYSTEM": "UO-31", "TEST_VALUE": "48.1 µM (inactive)"}
{"MOLECULE": "CCOc1nnnc2[nH]cnc12", "TEST_SYSTEM": "UO-31", "TEST_VALUE": "> 100 µM (inactive)"}
{"MOLECULE": "O=C(NCc1ccncc1)C1COc2cc(-c3cc(=O)c4ccccc4o3)ccc2O1 (stereo unspecified)", "TEST_SYSTEM": "UO-31", "TEST_VALUE": "> 100 µM (inactive)"}
{"MOLECULE": "Nc1ncnc2c1ncn2CCOC(c1ccccc1)P(=O)(O)O (stereo unspecified)", "TEST_SYSTEM": "UO-31", "TEST_VALUE": "> 100 µM (inactive)"}
{"MOLECULE": "CCOC(=O)CN1C(=O)c2cc([N+](=O)[O-])cc3cc([N+](=O)[O-])cc(c23)C1=O", "TEST_SYSTEM": "UO-31", "TEST_VALUE": "28.7 µM (inactive)"}

Would you kindly look at the next entry?
Q: What value of measured GI50 is listed for "COC(=O)c1ccc(NCc2c(O)ccc(O)c2Br)cc1Cl" ?
Result: 15.8 µM (inactive)

// data source = ChEMBL document CHEMBL1201862
